This section presents compounds with their documented IC50 values.
Test system: MDA-MB-468
Assay: cells
Assay type: functional, cell-based
Conditions: Homo sapiens, MDA-MB-468, 72 h
Description: Antiproliferative activity against human MDA-MB-468 cells assessed as cell viability after 72 hrs by MTT assay

- CCN(c1cc(-c2ccc(N3CCN(C(=O)c4cc(Cc5n[nH]c(=O)c6ccccc56)ccc4F)CC3)nc2)cc(C(=O)NCc2c(C)cc(C)[nH]c2=O)c1C)C1CCOCC1: > 50 µM

Task: State IC50 on MDA-MB-468. Entry: Cc1cc(C)c(CNC(=O)c2cc(-c3ccc(N4CCN(C(=O)c5cc(Cc6n[nH]c(=O)c7ccccc67)ccc5F)CC4)nc3)cc([N+](=O)[O-])c2)c(=O)[nH]1
Output: > 50 µM

Task: State IC50 on MDA-MB-468. Entry: CCn1ccc2c(C(=O)NCc3c(C)cc(C)[nH]c3=O)cc(-c3ccc(N4CCN(C(=O)c5cc(Cc6n[nH]c(=O)c7ccccc67)ccc5F)CC4)nc3)cc21
Output: > 50 µM

====

System: MDA-MB-468
Assay: cells
Assay type: functional, cell-based
Details: Homo sapiens, MDA-MB-468, 72 h
This section presents compounds with their documented IC50 values.

Please review the following examples before continuing.
* Cc1cc(C)c(CNC(=O)c2cc(-c3ccc(N4CCN(C(=O)c5cc(Cc6n[nH]c(=O)c7ccccc67)ccc5F)CC4)nc3)cc3c2cnn3C)c(=O)[nH]1 | > 50 µM
* C=CCn1ncc2c(C(=O)NCc3c(C)cc(C)[nH]c3=O)cc(-c3ccc(N4CCN(C(=O)c5cc(Cc6n[nH]c(=O)c7ccccc67)ccc5F)CC4)nc3)cc21 | > 50 µM
* Cc1cc(C)c(CNC(=O)c2cc(-c3ccc(N4CCN(C(=O)c5cc(Cc6n[nH]c(=O)c7ccccc67)ccc5F)CC4)nc3)cc(C(F)(F)F)c2)c(=O)[nH]1 | > 50 µM
* Cc1cc(C)c(CNC(=O)c2cc(-c3ccc(N4CCN(C(=O)c5cc(Cc6n[nH]c(=O)c7ccccc67)ccc5F)CC4)nc3)cc3c2cnn3C(=O)N(C)C)c(=O)[nH]1 | > 50 µM

Field: next compound
Task: Give me measured IC50, please, for this compound: Cc1cc(C)c(CNC(=O)c2cc(-c3ccc(N4CCN(C(=O)c5cc(Cc6n[nH]c(=O)c7ccccc67)ccc5F)CC4)nc3)cc3c2ccn3C)c(=O)[nH]1
Output: > 50 µM
